Values from patent US20240409645A1

Tgt: cynomolgus monkey IL-2Rγ/CD132 subunit (cynomolgus monkey)
Sequence (chain, as listed by the source): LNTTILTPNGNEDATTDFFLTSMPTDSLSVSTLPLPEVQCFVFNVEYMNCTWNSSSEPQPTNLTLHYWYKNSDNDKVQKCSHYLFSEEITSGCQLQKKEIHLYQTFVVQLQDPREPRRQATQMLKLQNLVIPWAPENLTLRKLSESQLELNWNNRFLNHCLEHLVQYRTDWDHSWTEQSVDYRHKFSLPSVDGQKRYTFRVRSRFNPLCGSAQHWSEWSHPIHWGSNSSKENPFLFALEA
Assay Explanation: ELISA, monovalent; EC50 cyno vs human subunit
Collected Fold change values appear next to each entry.
Report as a plain number; the unit fold is understood.

Binder: 27-MP04G01 VHH-hFc, monospecific monovalent (Fc fusion, part only; not given: Both Fc arms and linker, not shown: another chain or arm of the molecule; a dimerising Fc or GST; large carriers; small tags and cut ends) VHH: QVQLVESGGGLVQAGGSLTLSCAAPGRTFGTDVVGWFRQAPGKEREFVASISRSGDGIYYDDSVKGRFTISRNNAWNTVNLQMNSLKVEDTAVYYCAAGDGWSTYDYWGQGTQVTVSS
Measurement Label: Fold change
Recorded Value: 1

Binder: 29-MP04H02 VHH-hFc, monospecific monovalent (Fc fusion, part only; not given: Both Fc arms and linker, not shown: another chain or arm of the molecule; a dimerising Fc or GST; large carriers; small tags and cut ends) VHH: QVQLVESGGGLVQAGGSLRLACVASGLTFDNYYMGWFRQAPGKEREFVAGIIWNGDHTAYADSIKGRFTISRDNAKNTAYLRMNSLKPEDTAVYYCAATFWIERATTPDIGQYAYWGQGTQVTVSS
Measurement Label: Fold change
Recorded Value: 0.8

Binder: 28-MP04D02 VHH-hFc, monospecific monovalent (Fc fusion, part only; not given: Both Fc arms and linker, not shown: another chain or arm of the molecule; a dimerising Fc or GST; large carriers; small tags and cut ends) VHH: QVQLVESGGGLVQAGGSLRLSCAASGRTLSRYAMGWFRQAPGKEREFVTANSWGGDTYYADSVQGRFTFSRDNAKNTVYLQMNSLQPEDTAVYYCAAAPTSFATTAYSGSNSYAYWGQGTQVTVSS
Measurement Label: Fold change
Recorded Value: 1.2

Query: # query: Fold change of entry 37-MP07F09 VHH-hFc, monospecific monovalent (Fc fusion, part only; not given: Both Fc arms and linker, not shown: another chain or arm of the molecule; a dimerising Fc or GST; small tags and cut ends) VHH: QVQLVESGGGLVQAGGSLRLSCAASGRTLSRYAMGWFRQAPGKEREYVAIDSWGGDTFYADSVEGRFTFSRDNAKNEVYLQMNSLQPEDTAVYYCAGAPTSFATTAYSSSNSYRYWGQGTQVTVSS
Reply: 1.2
